# target_under_test: T1, monkey GPC3-His protein (monkey)
# T1 construct: Bought protein; also called monkey GPC3 protein
# protocol_summary: ELISA, monkey GPC3-His coated; antibody 0.0004 nM
Listing of entries alongside the reported OD450 nm.
quantity_measured: OD450 nm

INSERT INTO assay_data (binder, data_value) VALUES
  ('hAb007LH1L1c (antibody, human IgG1, V domains shown, Humanized F3.81.19, H1+L1c) VH: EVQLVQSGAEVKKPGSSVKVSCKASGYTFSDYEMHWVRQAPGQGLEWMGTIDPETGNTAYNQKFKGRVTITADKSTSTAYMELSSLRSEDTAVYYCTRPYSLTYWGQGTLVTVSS VL: DIVMTQTPLSLPVTPGEPASISCRSSQSFVHSNADTYLQWYLQKPGQSPQLLIYKVSNRFSGVPDRFSGSGSGTDFTLKISRVEAEDVGVYYCFQGSHVPYTFGQGTKLEIK', 0.05),
  ('hAb006LH3L1e (antibody, human IgG1, V domains shown, Humanized F3.38.7, H3+L1e) VH: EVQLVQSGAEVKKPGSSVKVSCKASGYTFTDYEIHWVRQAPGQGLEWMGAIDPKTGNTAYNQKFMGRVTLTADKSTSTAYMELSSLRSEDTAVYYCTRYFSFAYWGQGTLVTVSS VL: DIVMTQTPLSLPVTPGEPASISCRSSQTFVHSNVNTYLQWYLQKPGQSPQLLIYKVSNRFSGVPDRFSGSGSGTDFTLKISRVEAEDVGVYYCFQGSHVPYTFGQGTKLEIK', 0.066),
  ('hAb006LH3L1d (antibody, human IgG1, V domains shown, Humanized F3.38.7, H3+L1d) VH: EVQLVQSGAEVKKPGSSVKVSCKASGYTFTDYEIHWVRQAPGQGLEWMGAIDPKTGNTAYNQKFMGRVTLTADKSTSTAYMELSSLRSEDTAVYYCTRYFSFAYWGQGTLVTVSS VL: DIVMTQTPLSLPVTPGEPASISCRSSQTFVHSNSNTYLQWYLQKPGQSPQLLIYKVSNRFSGVPDRFSGSGSGTDFTLKISRVEAEDVGVYYCFQGSHVPYTFGQGTKLEIK', 0.068),
  ('hAb007LH1L1e (antibody, human IgG1, V domains shown, Humanized F3.81.19, H1+L1e) VH: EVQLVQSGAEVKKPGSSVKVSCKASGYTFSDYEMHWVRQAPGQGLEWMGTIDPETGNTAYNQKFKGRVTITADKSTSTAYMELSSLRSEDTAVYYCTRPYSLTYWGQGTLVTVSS VL: DIVMTQTPLSLPVTPGEPASISCRSSQSFVHSNVDTYLQWYLQKPGQSPQLLIYKVSNRFSGVPDRFSGSGSGTDFTLKISRVEAEDVGVYYCFQGSHVPYTFGQGTKLEIK', 0.043),
  ('hAb007LH1L1d (antibody, human IgG1, V domains shown, Humanized F3.81.19, H1+L1d) VH: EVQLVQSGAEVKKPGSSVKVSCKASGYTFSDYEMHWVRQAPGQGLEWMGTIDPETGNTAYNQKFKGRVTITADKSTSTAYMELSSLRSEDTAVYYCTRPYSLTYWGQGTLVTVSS VL: DIVMTQTPLSLPVTPGEPASISCRSSQSFVHSNSDTYLQWYLQKPGQSPQLLIYKVSNRFSGVPDRFSGSGSGTDFTLKISRVEAEDVGVYYCFQGSHVPYTFGQGTKLEIK', 0.053),
  ('hAb006LH3L1c (antibody, human IgG1, V domains shown, Humanized F3.38.7, H3+L1c) VH: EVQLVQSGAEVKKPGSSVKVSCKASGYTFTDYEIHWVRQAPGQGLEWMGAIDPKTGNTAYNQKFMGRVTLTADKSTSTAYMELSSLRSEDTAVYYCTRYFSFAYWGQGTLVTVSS VL: DIVMTQTPLSLPVTPGEPASISCRSSQTFVHSNRNTYLQWYLQKPGQSPQLLIYKVSNRFSGVPDRFSGSGSGTDFTLKISRVEAEDVGVYYCFQGSHVPYTFGQGTKLEIK', 0.071);
